Literature survey of IC50 (system: Vascular endothelial growth factor receptor 1 (Homo sapiens)).

Solved entries (count: 3):
>>> df
                         chemical_structure  experimental_readout  value_observed
0  CCCCNC(=O)Nc1ccc(F)c(Cc2c[nH]c3ncc(Cl)cc23)c1F                  IC50         ≤ 10 µM
1   Cc1cccc(Nc2ncnc(Nc3ccc4[nH]ccc4c3)n2)c1                  IC50       < 1.26 µM
2  CCCS(=O)(=O)Nc1ccc(F)c(C(=O)c2c[nH]c3ncc(-c4cnc(N(C)C)nc4)cc23)c1F                  IC50         ≤ 10 µM

Req: Retrieve IC50 on Vascular endothelial growth factor receptor 1 (Homo sapiens); query "Cc1ccc(F)c(NC(=O)Nc2ccc(Oc3ccnc(-c4cc(C(=O)N5CCN(CC(=O)O)CC5)c[nH]4)c3)cc2F)c1"
Resp: 0.009 µM

Req: Tell me its IC50 on Vascular endothelial growth factor receptor 1 (Homo sapiens): "CCCS(=O)(=O)Nc1ccc(F)c(C(=O)c2c[nH]c3ncc(-c4ccc(N)nc4)cc23)c1F"
Resp: ≤ 10 µM

Req: Would you please give the reported IC50 of "CC(=O)Nc1cccc(-c2cnc3[nH]cc(C(=O)c4cccc(OC(F)F)c4)c3c2)c1" with Vascular endothelial growth factor receptor 1 (Homo sapiens)?
Resp: ≤ 10 µM

Req: Write IC50 of "COc1cc(Nc2ncnc(-n3c(NCc4ccccc4)nc4ccccc43)n2)cc(OC)c1OC" ; system used: Vascular endothelial growth factor receptor 1 (Homo sapiens)
Resp: < 0.827 µM

Req: Fill: IC50 (Vascular endothelial growth factor receptor 1 (Homo sapiens)) for this compound "O=C(c1cc(O)ccc1F)c1c[nH]c2ncc(-c3cccs3)cc12"
Resp: ≤ 10 µM

* * *

pIC50: −log10 of the molar value.
The entries below pair compounds with pIC50 values for Vascular endothelial growth factor receptor 1 (Homo sapiens), as found in several publications.

As a guide, the following entries are already answered.
>>> df
                                   compound                               system_name  value_observed
0  COc1ccc(Nc2ncnc(N(CC(=O)O)c3ccc4c(c3)OCO4)n2)cc1OC  Vascular endothelial growth factor receptor 1 (Homo sapiens)          < 4.98
1  COc1cc(Nc2ncnc(N3CCCC4CCCCC43)n2)cc(OC)c1OC (centres unmarked)  Vascular endothelial growth factor receptor 1 (Homo sapiens)    5.22 to 6.00
2  CCN1CCC(Nc2ccc3c(c2)/C(=C(\c2ccc(C)cc2)c2nc4cc(OC)ccc4[nH]2)C(=O)N3)CC1  Vascular endothelial growth factor receptor 1 (Homo sapiens)    6.30 to 7.30
3  COc1cc(Nc2ncnc(Nc3ccc(C)c(N)c3)n2)cc(OC)c1OC  Vascular endothelial growth factor receptor 1 (Homo sapiens)    5.20 to 5.98
4  O=C(COc1ccc(F)c(Cc2c[nH]c3ncc(-c4cccnc4)cc23)c1F)NCc1ccccc1  Vascular endothelial growth factor receptor 1 (Homo sapiens)          ≥ 5.00

Req: Supply pIC50 measured with Vascular endothelial growth factor receptor 1 (Homo sapiens) for "Cc1ccc(F)c(NC(=O)c2ccc(F)c(Oc3ccnc(-c4cc(C(=O)NCCC(=O)O)c[nH]4)c3)c2)c1" .
Resp: 7.68

Req: Answer briefly: pIC50 recorded on Vascular endothelial growth factor receptor 1 (Homo sapiens) for "Oc1cccc(Cc2c[nH]c3ncc(-c4ccsc4)cc23)c1"
Resp: ≥ 5.00

Req: Fetch value of pIC50 on Vascular endothelial growth factor receptor 1 (Homo sapiens) for "CCCCNC(=O)Nc1ccc(F)c(C(=O)c2c[nH]c3ncc(-c4cccc(C(N)=O)c4)cc23)c1" .
Resp: ≥ 5.00

Req: Please indicate recorded pIC50 of "COc1cc(Nc2ncnc(Nc3ccc(OCc4ccccc4)cc3)n2)cc(OC)c1OC" measured with Vascular endothelial growth factor receptor 1 (Homo sapiens).
Resp: 5.28 to 6.06

Req: Look up Vascular endothelial growth factor receptor 1 (Homo sapiens) data: pIC50 of "COc1ccc(Nc2ncnc(N(C/C=C/c3ccccc3)c3ccc(Cl)cc3)n2)cc1OC" , then report it.
Resp: < 5.02

Req: For Vascular endothelial growth factor receptor 1 (Homo sapiens), give pIC50 of the listed compound: "Cc1ccc(F)c(NC(=O)c2ccc(F)c(Oc3ccnc(-c4cc(C(=O)NCCNC(=O)OC(C)(C)C)c[nH]4)c3)c2)c1"
Resp: 7.00
